Molecular target: c-Myc template DNA (c-myc quadruplex)
Assay: Quadruplex binding / stop assay (Taq polymerase arrest, capillary electrophoresis)
Conditions: read-out: Stop Data c-Myc μM; concentration at which 50% of the DNA was arrested (arrested:full-length 1:1)
In this section, each of the molecules is paired with its reported IC50.
Hi! Could you send only the number? It should be in µM, unit omitted.

Here are 3 molecules together with their reported answers.
{"MOLECULE": "NC1CCN(c2ccc3c(=O)c(C(=O)NCCCN4CCOCC4)cn4c3c2Oc2cc3ccccc3cc2-4)C1 (centres unmarked) [compound 457]", "UNIT_STRING": "µM", "IC50": 0.75}
{"MOLECULE": "CC(C)(C)OC(=O)NC1CCN(c2c(F)c(N)c3c(=O)c(C(=O)NCCN4CCOCC4)cn4c3c2Oc2cc3ccccc3cc2-4)C1 (centres unmarked) [compound 229]", "UNIT_STRING": "µM", "IC50": 1.75}
{"MOLECULE": "CC(O)CNc1c(F)cc2c(=O)c(C(=O)NCCC3CCCN3C)cn3c2c1Oc1cc2ccccc2cc1-3 (centres unmarked) [compound 283]", "UNIT_STRING": "µM", "IC50": 1.75}

Which value of IC50 has been reported for CN1CCCC1CCNC(=O)c1cn2c3c(c(NCCC4CCCN4C)c(F)cc3c1=O)Oc1cc3ccccc3cc1-2 (centres unmarked) [compound 124] in the records?
1.75

Item under review: NCCCCNC(=O)c1cn2c3c(c(N4CC[C@@H](N)C4)c(F)cc3c1=O)Oc1cc3ccccc3cc1-2 [compound 528] . Reported IC50?
0.375

Record request: IC50 value, item CN(C)CCCCNc1c(F)cc2c(=O)c(C(=O)NCCCN3CCOCC3)cn3c2c1Oc1cc2c(cc1-3)oc1ccccc12 [compound 162]
1.75

I'd like to know its IC50. The molecule in question is N[C@H]1CCN(c2c(F)cc3c(=O)c(C(=O)NCCN4CCCC4)cn4c3c2Oc2ccccc2-4)C1 [compound 109]
1.75

Give its IC50 value. Item: CN1CCN(CCCNC(=O)c2cn3c4c(c(NCCCN5CCOCC5)c(F)c(N)c4c2=O)Oc2cc4ccccc4cc2-3)CC1 [compound 223]
1.75

###

Quick reference for IC50 among some molecules
Target: c-Myc template DNA (c-myc quadruplex)
Experiment: Quadruplex binding / stop assay (Taq polymerase arrest, capillary electrophoresis)
Conditions: read-out: Stop Data c-Myc μM; concentration at which 50% of the DNA was arrested (arrested:full-length 1:1)
Give the number; µM is assumed, so skip it.

Worked cases, answers included:
{"MOLECULE": "CN1CCCC1CCNC(=O)c1cn2c3c(c(NCC4CCCO4)c(F)cc3c1=O)Oc1cc3ccccc3cc1-2 (centres unmarked) [compound 1471]", "SUBJECT_OF_TEST": "c-Myc template DNA (c-myc quadruplex)", "UNIT_STRING": "µM", "IC50": 5}
{"MOLECULE": "N[C@H]1CCN(c2c(F)cc3c(=O)c(C(=O)NCCN4CCOCC4)cn4c5cc6c(cc5oc2c34)c(=O)c2ccccc26)C1 [compound 579]", "SUBJECT_OF_TEST": "c-Myc template DNA (c-myc quadruplex)", "UNIT_STRING": "µM", "IC50": 0.18}
{"MOLECULE": "O=C(NCCN1CCOCC1)c1cn2c3c(c(NCCCN4CCOCC4)c(F)cc3c1=O)Oc1cc3c(cc1-2)oc1ccccc13 [compound 361]", "SUBJECT_OF_TEST": "c-Myc template DNA (c-myc quadruplex)", "UNIT_STRING": "µM", "IC50": 0.75}
{"MOLECULE": "CC1CCCCN1CCCNC(=O)c1cn2c3c(c(N4CCC(NC(=O)OC(C)(C)C)C4)c(F)cc3c1=O)Oc1cc3ccccc3cc1-2 (centres unmarked) [compound 185]", "SUBJECT_OF_TEST": "c-Myc template DNA (c-myc quadruplex)", "UNIT_STRING": "µM", "IC50": 1.75}
{"MOLECULE": "O=C(O)c1cn2c3c(c(NCCCN4CCOCC4)c(F)cc3c1=O)Oc1cc3c(cc1-2)-c1ccccc1C3 [compound 6]", "SUBJECT_OF_TEST": "c-Myc template DNA (c-myc quadruplex)", "UNIT_STRING": "µM", "IC50": 1.75}

Now let's try a different one.
State the recorded IC50 for this entry: CN1CCCC1CCNC(=O)c1cn2c3c(c(N4CCC(n5c(=O)[nH]c6ccccc65)CC4)c(F)cc3c1=O)Oc1cc3ccccc3cc1-2 (centres unmarked) [compound 324]
1

###

Target: c-Myc template DNA (c-myc quadruplex)
Experiment: Quadruplex binding / stop assay (Taq polymerase arrest, capillary electrophoresis)
Conditions: read-out: Stop Data c-Myc μM; concentration at which 50% of the DNA was arrested (arrested:full-length 1:1)
In this section we review reported IC50 values for a set of molecules.
Numeric only. Scale: µM

Some entries whose results are on file:
{"MOLECULE": "CN(C)CCCCNc1c(F)cc2c(=O)c(C(=O)NCCC3CCCN3C)cn3c2c1Oc1c-3ccc2ccccc12 (stereo not drawn) [compound 496]", "UNIT_STRING": "µM", "IC50": 0.41}
{"MOLECULE": "Cc1ncn(C(=O)c2cn3c4c(c(N5CCC(N)C5)c(F)cc4c2=O)Oc2cc4ccccc4cc2-3)c1CO (stereo not drawn) [compound 199]", "UNIT_STRING": "µM", "IC50": 1.75}

// below: IC50 requested for another molecule
Which IC50 reading was recorded for the molecule CN1CCCC1CCNC(=O)c1cn2c3c(c(Nc4ccccc4N4CCOCC4)c(F)cc3c1=O)Oc1cc3ccccc3cc1-2 (stereo not drawn) [compound 264] ?
1.75

###

compounds and their reported log10(IC50)
Target: c-Myc template DNA (c-myc quadruplex)
Assay: Quadruplex binding / stop assay (Taq polymerase arrest, capillary electrophoresis)
Conditions: read-out: S DATA; Table 1D, stop assay data
Give log10 of IC50, with IC50 taken in µM.

Consider the following illustrative entries.
{"COMPOUND": "CCN1CCN(c2c(F)cc3c(=O)c(C(=O)NCCN4CCCC4)cn4c3c2Oc2cc(Cl)ccc2-4)CC1", "EXPERIMENTAL_RESULT": 0.68}
{"COMPOUND": "O=C(NCCCN1CCOCC1)c1cn2c3c(c(NCCN4CCCC4)ccc3c1=O)Oc1cc3ccccc3cc1-2", "EXPERIMENTAL_RESULT": 0.24}

Any idea what log10(IC50) was measured for CN1CCCC1CCNC(=O)c1cn2c3c(c(N4CC5CCCNC5C4)c(F)cc3c1=O)Oc1cc3ccccc3cc1-2 (stereo not shown) ?
-0.43

Returns the measured log10(IC50) for the input compound. Input: CN1CCCC1CCNC(=O)c1cn2c3c(c(/N=C4\CCCCN4)c(F)cc3c1=O)Oc1cc3ccccc3cc1-2 (stereo not shown)
0.24

# query: log10(IC50) of entry CN1CCCC1CCNC(=O)c1cn2c3c(c(NC4CCS(=O)(=O)C4)c(F)cc3c1=O)Oc1cc3ccccc3cc1-2 (stereo not shown)
0.29

Consider the compound C[N+]1([O-])CCC[C@@H]1CCNC(=O)c1cn2c3c(c(N4CCC(c5cnccn5)C4)c(F)cc3c1=O)Oc1cc3ccccc3cc1-2 (stereo partly shown) and give its measured log10(IC50).
0.80

Any idea what log10(IC50) was measured for CC(C)CN1CCN(c2c(F)cc3c(=O)c(C(=O)NCCN4CCCC4)cn4c3c2Oc2cc(Cl)ccc2-4)CC1 ?
0.88

Quick check: log10(IC50) of O=C(NCCN1CCCC1)c1cn2c3c(c(N4CCN(C(=O)C(F)(F)F)CC4)c(F)cc3c1=O)Oc1cc(Cl)ccc1-2 ?
1.00

// lookup log10(IC50) for O=C(NCCC1CCCN1)c1cn2c3c(c(NCCN4CCCC4)ccc3c1=O)Oc1cc3ccccc3cc1-2 (stereo not shown)
0.24

Need log10(IC50), item O=C(NCCN1CCCC1)c1cn2c3c(c(SCCc4cnccn4)c(F)cc3c1=O)Oc1cc3ccccc3cc1-2
0.51

Reported log10(IC50), compound CN1CCC[C@@H]1CCNC(=O)c1cn2c3c(c(N4CCC(c5cnccn5)C4)c(F)cc3c1=O)Oc1cc3ccccc3cc1-2 (stereo partly shown) : ____
-0.13

Give its log10(IC50) value. Item: CN(C)CCCCNC(=O)c1cn2c3c(c(N4CC5CCCNC5C4)c(F)cc3c1=O)Oc1cc3ccccc3cc1-2 (stereo not shown)
-0.43

Requested field: log10(IC50). Item: O=C(NCCN1CCCC1)c1cn2c3c(c(N4CCC(c5cnccn5)C4)ccc3c1=O)Oc1cc3ccccc3cc1-2 (stereo not shown)
0.18

###

Target: c-Myc template DNA (c-myc quadruplex)
Assay: Quadruplex binding / stop assay (Taq polymerase arrest, capillary electrophoresis)
Settings: read-out: Stop Data c-Myc μM; concentration at which 50% of the DNA was arrested (arrested:full-length 1:1)
READOUT_NAME: IC50 (µM)
# number only, unit µM dropped from output

Take a look at these entries with their results.
{"MOLECULE": "CN(C)CCCCNC(=O)c1cn2c3c(c(N4CC[C@@H](N)C4)c(F)cc3c1=O)Oc1c-2ccc2ccccc12", "EXPERIMENTAL_RESULT": 1.75}
{"MOLECULE": "CC1(C)CC(NC(=O)c2cn3c4c(c(N5CCC(N)C5)ccc4c2=O)Oc2cc4ccccc4cc2-3)CC(C)(C)N1 (stereo not shown)", "EXPERIMENTAL_RESULT": 0.375}
{"MOLECULE": "CN1CCC[C@H]1CCNC(=O)c1cn2c3c(c(N4CCC(c5cnccn5)C4)c(F)cc3c1=O)Oc1cc3ccccc3cc1-2 (stereo partly shown) [compound 469]", "EXPERIMENTAL_RESULT": 0.73}
{"MOLECULE": "CN(C)CCCCNC(=O)c1cn2c3c(c(NCCCN4CCOCC4)c(F)cc3c1=O)Oc1c-2ccc2ccccc12", "EXPERIMENTAL_RESULT": 1.75}

Given the entry CN1CCN(CCCNC(=O)c2cn3c4cc5c(=O)c6ccccc6c(=O)c5cc4oc4c(F)c(F)cc(c2=O)c43)CC1 , report its measured IC50.
0.9

Reported IC50 for CN1CCN(CCCNC(=O)c2cn3c4c(c(NCCCN5CCN(C)CC5)c(F)cc4c2=O)Oc2cc4ccccc4cc2-3)CC1 : what is it?
0.9

For the molecule shown here, CN(C)CCCCNc1c(F)cc2c(=O)c(C(=O)N3CCN(C)CC3)cn3c2c1Oc1cc2c(cc1-3)oc1ccccc12 , give the reported IC50.
1.75

// IC50 lookup, key: CN1CCCC1CCNc1c(F)cc2c(=O)c(C(=O)NCCN3CCOCC3)cn3c2c1Oc1c-3ccc2ccccc12 (stereo not shown)
1.75

Report IC50 for O=C(NCCCN1CCOCC1)c1cn2c3c(c(NCCN4CCCC4)c(F)cc3c1=O)Oc1c-2ccc2ccccc12 please.
1.75
